Every entry's value here was drawn from patent US10478482B2.

Test system: serum from patients with TB
Experiment: Antibody recognition of peptides by serum from patients with TB
Format: binding, human
Conditions: serum from the group TB
Measurement Type: Average int.
Provide a numeric answer; units are not to be included.

NTGSYNMGDFNPGSS [CAE55416-PPE family protein_385] : 0.9479
GLYQVVPGIYQVRGF [CAA18084-possible hydrolase_85] : 0.5432
AAGNNVTVFGYSQSA [CAE55427-PPE family protein_289] : 0.4545

# evaluate next
Q) Param item = MTAPVWLASPPEVHS [CAE55538-PPE family protein_1] ; retrieve measured Average int..
A) 0.8461

----------
# Average int. values compiled below
Test system: serum from patients with sarcoidosis
Experiment: Antibody recognition of peptides by serum from patients with sarcoidosis
Assay type: binding, human
Conditions: serum from the group sarcoidosis

Answered cases to consult:
LSGDNQQGFNFAGGW [CAE55276-PPE family protein_1117] : 1.6435
VIGGIGPIHVQPIDI [CAE55585-PPE family protein_865] : 0.7433
NANFGGGNGSAFHGQ [CAE55320-PPE family protein_205] : 1.4131
SSGKPGRDPEAGRYG [CAB02482-probable lipase lipe_385] : 1.3190
GGGNTGSGNIGNGNK [CAE55613-PPE family protein_193] : 1.2266
APALMDVEAAYEQMW [CAE55281-PPE family protein_133] : 1.6787

# evaluate next
Q) Param item = GSSAMILAAYHPQQF [CAB10044-secreted antigen 85-B FBPB (85B)A_169] ; retrieve measured Average int..
A) 0.6077

----------
System: serum from patients with TB
Experiment: Antibody recognition of peptides by serum from patients with TB
Assay type: binding, human
Conditions: serum from the group TB
Measurement Type: Average int.
Provide a numeric answer; units are not to be included.

Answered cases to consult:
AWVSRGAHKLVGALE [CAB10951-cytotoxin haemolysin homologue TLYA_61] : 0.7175
QWILHMAKLSAAMAK [CAA17973-conserved hypothetical alanine and_193] : 0.4333

# evaluate next
Q) Param item = TRLGIRLVIVLVRRW [CAB05419-possible glycosyl transferase_241] ; retrieve measured Average int..
A) 0.9264
